- Tested on: HCC-2998 colon
- measurementNotes: NCI tumour cell line growth inhibition, 48 h; in the data active means GI50 below about 0.43 µM; inactive means the rest
Outcome codes: y (active), n (inactive)

{"columns": ["compound", "label"],
 "data": [
  ["O=C(CCCCCCSc1nc(-c2ccccc2)cc(-c2ccc(Cl)cc2)n1)NO", "n"],
  ["COc1cc2c3c(n(C)c(=O)c2cc1OC)-c1cc2c(cc1/C3=C\\CCCCCN)OCO2", "n"],
  ["CC(=O)O[C@H]1CC[C@@]2(C)C(=CC[C@@H]3[C@@H]2CC[C@]2(C)C(c4cccnc4)=CC[C@@H]32)C1", "n"],
  ["COc1ccc(C(=O)/C(Br)=C/C(=O)O)cc1", "n"],
  ["COc1cc(C2CC(c3ccc(C)cc3)=NN2C=O)ccc1Oc1ccnc2cc(Cl)ccc12 (configuration not stated)", "n"],
  ["COc1ccc2c(c1)[nH]c(=O)c1c3cc(C)c(C)cc3cn21", "y"],
  ["O=[N+]([O-])C1C(c2ccccc2)C12c1ccccc1-c1ccccc12 (configuration not stated)", "n"],
  ["O=C(CSc1nc2ccccc2[nH]1)Nc1ccc(-c2nc3ccccc3s2)c(Cl)c1", "n"],
  ["CCOc1cc2ncc(C#N)c(Nc3ccc(OCc4cccc(F)c4)c(Cl)c3)c2cc1NC(=O)CC1CCSS1 (configuration not stated)", "n"],
  ["Cc1ccc(-[n+]2c3cc(N)c(C)cc3nc3cc(C)c(Nc4ccccc4)cc32)cc1", "n"],
  ["O=c1oc2cc(OS(=O)(=O)c3ccc(F)cc3)ccc2c2c1CCCCC2", "n"],
  ["COc1cc(O)c([C@@H]2C[C@H](CCc3ccc(O)cc3)O[C@H](c3ccc(O)cc3)C2)c(O)c1C(=O)/C=C/c1ccc(O)cc1", "n"]
]}
